Attribution: ChEMBL document CHEMBL5104188

# measured-on: UniProt:Q46085
# Sequence (Q46085 whole entry): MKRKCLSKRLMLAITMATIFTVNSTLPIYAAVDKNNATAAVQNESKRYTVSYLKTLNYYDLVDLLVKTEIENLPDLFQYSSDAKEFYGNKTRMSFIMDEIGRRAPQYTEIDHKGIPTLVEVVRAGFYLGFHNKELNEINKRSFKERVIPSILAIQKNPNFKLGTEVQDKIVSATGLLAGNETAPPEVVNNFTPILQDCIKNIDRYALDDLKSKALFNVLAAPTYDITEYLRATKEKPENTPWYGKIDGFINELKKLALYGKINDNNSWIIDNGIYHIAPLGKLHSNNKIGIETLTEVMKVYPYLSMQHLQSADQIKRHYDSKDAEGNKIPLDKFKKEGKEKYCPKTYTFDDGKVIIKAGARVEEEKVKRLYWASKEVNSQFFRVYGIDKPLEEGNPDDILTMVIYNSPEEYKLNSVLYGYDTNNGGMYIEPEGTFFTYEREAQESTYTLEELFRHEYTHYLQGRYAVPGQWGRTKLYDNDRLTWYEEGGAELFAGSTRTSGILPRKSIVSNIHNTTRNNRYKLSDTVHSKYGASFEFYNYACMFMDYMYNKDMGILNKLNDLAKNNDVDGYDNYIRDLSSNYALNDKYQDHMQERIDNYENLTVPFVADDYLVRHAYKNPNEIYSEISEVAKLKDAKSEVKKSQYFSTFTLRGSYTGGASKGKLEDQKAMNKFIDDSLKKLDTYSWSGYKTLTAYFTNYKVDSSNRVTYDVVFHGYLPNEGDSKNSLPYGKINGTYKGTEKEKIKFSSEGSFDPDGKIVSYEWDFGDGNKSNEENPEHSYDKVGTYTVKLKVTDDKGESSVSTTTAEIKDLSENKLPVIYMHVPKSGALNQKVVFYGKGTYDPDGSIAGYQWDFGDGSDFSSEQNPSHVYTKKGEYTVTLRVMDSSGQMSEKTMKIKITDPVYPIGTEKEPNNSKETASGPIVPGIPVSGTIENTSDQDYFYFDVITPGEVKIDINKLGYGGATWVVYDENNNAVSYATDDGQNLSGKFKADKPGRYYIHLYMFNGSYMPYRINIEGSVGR
# procedure-summary: Inhibition of Clostridium histolyticum CoLH using M MOCAcPro-Leu-Gly-Leu-A2pr-(DNP)Ala-Arg-NH2 as substrate incubated for 10 mins by fluorescence spectrophotometer analysis
quantity: IC50
Be sure to follow the number with its unit.

Quick request: IC50 for each listed item, please.
1. COc1cc2ccc(=O)oc2cc1OC
2. O=C(O)CN(CC1c2ccccc2C=Cc2ccccc21)C(=O)NS(=O)(=O)c1ccc(F)cc1

1. 0.024 µM
2. 0.021 µM

====

# measured-on: 72 kDa type IV collagenase (Homo sapiens)
# Sequence (P08253 whole entry): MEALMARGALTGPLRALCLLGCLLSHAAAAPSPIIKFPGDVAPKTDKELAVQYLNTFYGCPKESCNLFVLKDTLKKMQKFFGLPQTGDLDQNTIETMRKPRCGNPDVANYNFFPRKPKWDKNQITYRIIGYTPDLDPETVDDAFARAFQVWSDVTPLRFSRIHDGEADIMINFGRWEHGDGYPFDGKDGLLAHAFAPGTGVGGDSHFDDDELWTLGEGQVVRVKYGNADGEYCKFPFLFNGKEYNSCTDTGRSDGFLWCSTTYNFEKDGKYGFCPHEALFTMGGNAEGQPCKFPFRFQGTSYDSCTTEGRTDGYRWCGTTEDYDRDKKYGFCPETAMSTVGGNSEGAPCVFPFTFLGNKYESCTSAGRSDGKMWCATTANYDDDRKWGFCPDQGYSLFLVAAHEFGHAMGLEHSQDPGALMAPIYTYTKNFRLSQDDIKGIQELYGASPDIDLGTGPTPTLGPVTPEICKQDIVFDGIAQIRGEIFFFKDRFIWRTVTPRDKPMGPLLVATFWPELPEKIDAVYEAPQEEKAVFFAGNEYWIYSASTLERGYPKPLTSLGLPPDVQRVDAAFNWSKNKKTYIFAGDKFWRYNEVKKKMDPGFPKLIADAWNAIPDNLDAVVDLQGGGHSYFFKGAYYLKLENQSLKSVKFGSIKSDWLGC
quantity: Ki (nM)
Numbers only, in nM.

Look up Ki: O=C(O)CN(CC1c2ccccc2C=Cc2ccccc21)C(=O)NS(=O)(=O)c1ccc(F)cc1
9

====

# measured-on: UniProtKB Q46085
quantity: Ki (nM)
Numbers only, in nM.

Look up Ki: CC(NC(=O)C(Cc1ccccc1)NC(=O)NS(=O)(=O)c1ccc(F)cc1)C(=O)Nc1nnc(S)s1 (stereo unspecified)
200
